# maps each entry to its AC50
# TESTED_SYSTEM: Prostaglandin G/H synthase 1 (Homo sapiens); also: assay procedure not described here
# Sequence (P23219 whole entry): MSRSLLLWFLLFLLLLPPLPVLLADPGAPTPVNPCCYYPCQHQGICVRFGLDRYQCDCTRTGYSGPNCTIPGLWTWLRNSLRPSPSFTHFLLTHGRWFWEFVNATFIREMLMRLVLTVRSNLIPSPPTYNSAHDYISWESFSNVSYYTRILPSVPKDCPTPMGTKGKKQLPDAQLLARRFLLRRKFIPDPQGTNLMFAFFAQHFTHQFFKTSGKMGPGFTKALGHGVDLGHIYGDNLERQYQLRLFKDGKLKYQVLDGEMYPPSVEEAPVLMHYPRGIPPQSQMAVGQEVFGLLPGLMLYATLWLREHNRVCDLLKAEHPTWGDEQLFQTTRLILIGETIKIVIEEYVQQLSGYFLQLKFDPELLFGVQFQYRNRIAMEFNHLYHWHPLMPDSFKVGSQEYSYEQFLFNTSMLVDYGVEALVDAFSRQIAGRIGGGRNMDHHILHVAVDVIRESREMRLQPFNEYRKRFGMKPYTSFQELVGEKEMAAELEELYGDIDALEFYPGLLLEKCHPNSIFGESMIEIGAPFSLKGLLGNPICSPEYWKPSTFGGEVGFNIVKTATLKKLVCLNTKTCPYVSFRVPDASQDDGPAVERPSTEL
# Type: functional

MOLECULE | AC50
C[C@]1(Cn2ccnn2)[C@H](C(=O)O)N2C(=O)C[C@H]2S1(=O)=O | > 30 µM
Cc1cc(NC(=O)C2=C(O)c3ccccc3S(=O)(=O)N2C)no1 | > 30 µM
CN1CCC(=C2c3ccccc3Sc3ccccc32)CC1 | > 30 µM
C#C[C@]1(O)CC[C@H]2[C@@H]3CCC4=CC(=O)CC[C@@H]4[C@H]3C(=C)C[C@@]21CC | > 30 µM
CN1C(=O)/C(=N\NC(N)=S)c2ccccc21 | > 10 µM

Ask | Identify the reported AC50 for the following entry. C=CCN1CC[C@]23CCCC[C@H]2[C@H]1Cc1ccc(O)cc13
Reply | 8.54 µM

Ask | # return recorded AC50 for input Cc1ccccc1C(=O)Nc1ccc(C(=O)N2CCCC(N(C)C)c3ccccc32)cc1 (stereo not drawn)
Reply | > 30 µM

Ask | Please give measured AC50 of the following entry: C[C@@H]1C[C@H]2[C@@H]3CCC4=CC(=O)C=C[C@]4(C)[C@@]3(Cl)[C@@H](O)C[C@]2(C)[C@@]1(OC(=O)c1ccco1)C(=O)CCl [MOMETASONE FUROATE]
Reply | 13.7 µM
